molecular target: α2β2γ1 GABAA receptor subtype (Homo sapiens (Human), UniProt P47869+Q8N1C3); assay: Two-electrode voltage clamp electrophysiology in Xenopus oocytes expressing GABAA receptors (modulation of GABA EC20 current); assay type: cell-based; conditions: % modulation of GABA EC20 = 100*(Fold increase-1); α2β2γ1 oocytes; compound at approx. 30-fold Ki
Give Efficacy (GABA)% for every item shown.
// return numeric value only (unit: %, not printed)

**Q:** So what does the record say about Efficacy (GABA)% for C[C@@H]1N=C(c2ncccc2F)c2c(ccc(Cl)c2Cl)-n2nc(C(=O)N3CC4(CCOCC4)C3)nc21 ?
**A:** 126

**Q:** So what does the record say about Efficacy (GABA)% for CCOC1CN(C(=O)c2nc3n(n2)-c2ccc(Cl)c(Cl)c2C(c2ncccc2F)=N[C@H]3C)C1 ?
**A:** 97

**Q:** So what does the record say about Efficacy (GABA)% for CNS(=O)(=O)c1nc2n(n1)-c1ccc(Cl)c(Cl)c1C(c1c(F)cccc1F)=N[C@H]2C ?
**A:** 58

**Q:** So what does the record say about Efficacy (GABA)% for [2H]C([2H])([2H])OC1CN(C(=O)c2nc3n(n2)-c2ccc(Cl)c(Cl)c2C(c2ncccc2F)=N[C@H]3C)C1 ?
**A:** 89

**Q:** So what does the record say about Efficacy (GABA)% for C[C@@H]1N=C(c2c(F)cccc2F)c2c(ccc(Cl)c2Cl)-n2nc(C(=O)N3CC4(CCCCO4)C3)nc21 ?
**A:** 52

**Q:** So what does the record say about Efficacy (GABA)% for CCOC1CN(C(=O)c2nc3n(n2)-c2ccc(C(F)(F)F)c(Cl)c2C(c2ncccc2F)=N[C@H]3C)C1 ?
**A:** 129

**Q:** So what does the record say about Efficacy (GABA)% for Cc1nnc(-c2nc3n(n2)-c2ccc(C(F)(F)F)c(Cl)c2C(c2ncccc2F)=N[C@H]3C)o1 ?
**A:** 169

====

Give LogSel for every item shown.
target: human GABAA α1β3γ2 receptor (Homo sapiens (Human), UniProt P14867+P18507); assay: Radioligand binding assay for γ2-containing GABAA subtypes, [3H]Flumazenil competition (α1β3γ2); settings: Log[Ki α1β3γ2 (nM)/Ki α2β2γ1 (nM)]
Number only, please.

**Q:** So what does the record say about LogSel for COc1nc2n(n1)-c1ccc(Cl)c(Cl)c1C(c1c(F)cccc1F)=N[C@H]2C [Example 91] ?
**A:** 1.50

**Q:** So what does the record say about LogSel for [2H]C([2H])([2H])N(C(=O)c1nc2n(n1)-c1ccc(Cl)c(Cl)c1C(c1c(F)cccc1F)=N[C@H]2C)C([2H])([2H])[2H] [Example 19] ?
**A:** 1.91

**Q:** So what does the record say about LogSel for C[C@@H]1N=C(c2c(F)cccc2F)c2c(ccc(Cl)c2Cl)-n2nc(C(=O)N3CC(O)C3)nc21 [Example 25] ?
**A:** 2.24

**Q:** So what does the record say about LogSel for C[C@@H]1N=C(c2c(F)cccc2F)c2c(ccc(Cl)c2Cl)-n2nc(C(=O)N3CC[C@@H](O)C3)nc21 [Example 47] ?
**A:** 2.47

**Q:** So what does the record say about LogSel for C[C@@H]1N=C(c2c(F)cccc2F)c2c(ccc(C(F)(F)F)c2Cl)-n2nc(C(=O)N3CCC3)nc21 [Example 26] ?
**A:** 2.33

**Q:** So what does the record say about LogSel for C[C@@H]1N=C(c2c(F)cccc2F)c2c(ccc(C(F)(F)F)c2Cl)-n2nc(NC(=O)N3C4COCC3C4)nc21 (single isomer, unassigned) [Example 130] ?
**A:** 2.06

**Q:** So what does the record say about LogSel for C[C@@H]1N=C(c2c(F)cccc2F)c2c(ccc(Cl)c2Cl)-n2nc(C(=O)N3CC[C@H](F)C3)nc21 [Example 80] ?
**A:** 1.84

**Q:** So what does the record say about LogSel for C[C@@H]1N=C(c2c(F)cccc2F)c2c(ccc(Cl)c2Cl)-n2nc(N3CC(O)C3)nc21 [Example 66] ?
**A:** 1.60

**Q:** So what does the record say about LogSel for C[C@@H]1N=C(c2c(F)cccc2F)c2c(ccc(C(F)(F)F)c2Cl)-n2nc(C(=O)N3CCS(=O)(=O)CC3)nc21 [Example 114] ?
**A:** 2.51

**Q:** So what does the record say about LogSel for COC1CN(C(=O)c2cn3c(n2)CN=C(c2ccccc2F)c2c-3ccc(Cl)c2Cl)C1 [Example 1] ?
**A:** 1.41

**Q:** So what does the record say about LogSel for COC1CN(C(=O)c2cn3c(n2)CN=C(c2c(F)cccc2F)c2c-3ccc(Cl)c2Cl)C1 [Example 2] ?
**A:** 1.59

**Q:** So what does the record say about LogSel for C[C@@H]1N=C(c2ncccc2F)c2c(ccc(Cl)c2Cl)-n2nc(C(=O)N3CC(OC(F)F)C3)nc21 [Example 90] ?
**A:** 2.34

**Q:** So what does the record say about LogSel for C[C@@H]1N=C(c2ncccc2F)c2c(ccc(C(F)(F)F)c2Cl)-n2nc(C(=O)NCCO)nc21 [Example 138] ?
**A:** 2.52

**Q:** So what does the record say about LogSel for C[C@@H]1N=C(c2c(F)cccc2F)c2c(ccc(C(F)(F)F)c2Cl)-n2ncnc21 [Example 22] ?
**A:** 2.14
